Experiment: Quantitative High-Throughput drug screen in 47 multiple myeloma cell lines against the NCATS MIPE library collection: MM1R_ATCC cell viability assay (AID 1918981); further: nearly all actives have a fitted effect of over 35% in size
Conditions: MM1R multiple myeloma cells, CellTiter-Glo viability, 48 h; series mostly up to 45.8 µM
Text: PI: Beverly A. Mock Ph.D. Laboratory of Cancer Biology and Genetics, Center for Cancer Research, National Cancer Institute, National Institute of Health, Bethesda, Maryland […] 5; Detector; 425V; Luminescence; Viewlux PerkinElmer. […] 1. […] Briefly, the corresponding myeloma cell lines were screened in 1,536-well plates with 500 cells, 5-uL per well for inhibition of cell viability (assessed by measuring ATP levels with CellTiterGlo). […]
Results filed as inconclusive are left out. Calls of active or inactive are those of the source. The call rests on the fitted dose curve; in most records, active means well fitted cell-killing curve with a large enough effect; inconclusive means small, poorly fitted or top-dose-only effect, or effect the other way; inactive means no such curve, though single readings can be large or run the other way.
Labels: active, inactive

compound	class
C[C@]12CC[C@@H]3c4ccc(O)cc4CC[C@H]3[C@H]1C[C@@H](O)[C@H]2O	inactive
COc1ccc(-c2oc3c(CC=C(C)C)c(OC4O[C@H](CO)[C@@H](O)[C@H](O)[C@@H]4O)cc(O)c3c(=O)c2OC2O[C@@H](C)[C@H](O)[C@@H](O)[C@@H]2O)cc1 (some centres not stated)	active
Cc1cnc(C(=O)O)c[n+]1[O-]	inactive
C=C1C(=O)OC2C=C(C)CCC=C(C)CCC12 (configuration not stated)	active
CCCCCNC(=O)N1CCC(CN(Cc2ccc(Cl)cc2)Cc2ccc([N+](=O)[O-])s2)C1 (configuration not stated)	active
CO[C@H]1C=CO[C@@]2(C)Oc3c(C)c(O)c4c(O)c(c5c(c4c3C2=O)NC2(CCN(CC(C)C)CC2)N=5)=NC(=O)C(C)=CC=C[C@H](C)[C@H](O)[C@@H](C)[C@@H](O)[C@@H](C)[C@H](OC(C)=O)[C@H]1C	active
C[N+](C)(C)CC(=O)O	inactive
O=c1cc(N2CCOCC2)oc2c(-c3cccc4c3sc3ccccc34)cccc12	active
O=C1c2ccccc2-[n+]2ccc3c([nH]c4ccccc43)c21	active
CCOC(=O)O[C@]1(C(=O)OCCl)CC[C@@H]2[C@H]3CCC4=CC(=O)C=C[C@]4(C)[C@@H]3[C@@H](O)C[C@@]21C	inactive
COCCOc1nc(-c2ccc(Cl)c(Cl)c2)n(-c2ccc(NC(=O)CCl)cc2)n1	active
CC(C)=CC[C@@H](O)C1=CC(=O)c2c(O)ccc(O)c2C1=O	active
CCOC(=O)C1=C(N)Oc2ccc(Br)cc2C1C(C#N)C(=O)OCC (configuration not stated)	active
CO[C@H]1C[C@@H]2CC[C@@H](C)[C@@](O)(O2)C(=O)C(=O)N2CCCC[C@@H]2C(=O)O[C@H]([C@H](C)C[C@@H]2CC[C@H](OP(C)(C)=O)[C@H](OC)C2)CC(=O)[C@H](C)C=C(C)[C@@H](O)[C@@H](OC)C(=O)[C@H](C)C[C@H](C)C=CC=CC=C1C	inactive
CC(C)(C)COc1ccc(-n2cc(C(=O)O)cn2)cc1C#N	inactive
C=C1C(=O)[C@@]23C(CC[C@@H]1[C@H]2O)[C@@]12CO[C@]3(O)[C@@H](O)[C@@H]1C(C)(C)CC[C@@H]2O (some centres not stated)	active
O=C(Nc1cc(Cl)cc2c1[nH]c1cnccc12)c1cccnc1	active
COc1cccc(-c2cc(=O)c3ccccc3o2)c1N	active
O=C(O)[C@H]1O[C@H](Oc2cc3oc(-c4ccccc4)cc(=O)c3c(O)c2O)[C@H](O)[C@@H](O)[C@H]1O	active
O=C(NC1CCOCC1)c1ccc(-c2cc(-c3cn[nH]c3-c3ccccn3)ccn2)cc1	active
COc1cccc([C@@H](C)NCCCc2ccccc2Cl)c1	inactive
COc1cc2nc(-c3ccc(N4CCN(C)CC4)cc3)nc(NCCN3CCOCC3)c2cc1OC	active
O=C(O)c1ccccc1C(=O)Nc1ccc(-c2ccccc2)cc1	inactive
Cc1ccc(Nc2cc(-c3cccc(N4C(=O)c5ccccc5C4=O)c3)ncn2)cc1NS(C)(=O)=O	active
C[C@]12CCC3c4ccc(O)cc4CCC3C1CCC2=O (some centres not stated)	inactive
CC(C)(C)c1cc(C(=O)O)c(NC(=O)Nc2ccc3[nH]ncc3c2)s1	inactive
CN1[C@@H]2CCC[C@@H]1CC(NC(=O)c1nn(C)c3ccccc13)C2 (some centres not stated)	inactive
COc1cc(Nc2ncc(F)c(Nc3ccc4c(n3)NC(=O)C(C)(C)O4)n2)cc(OC)c1OC	active
O=C(Nc1cccc(Br)c1)c1cccc(S(=O)(=O)N2CCCCCC2)c1	active
NC(CO)(CO)CCc1ccc(Sc2cccc(OCc3ccccc3)c2)cc1Cl	active
CNC1CCC(N(Cc2cccc(-c3ccncc3)c2)C(=O)c2sc3c(F)ccc(F)c3c2Cl)CC1 (configuration not stated)	active
O=c1cc(-c2ccccc2)oc2cc(O)c(O)c(O)c12	active
O=C(CCN1CCN(C(=O)OCc2cc(Cl)cc(Cl)c2)CC1)c1ccc2[nH]c(=O)oc2c1	active
COC[C@@H](c1ccc(C(F)(F)F)cc1)N1CCN(C2(C)CCN(C(=O)c3c(C)ncnc3C)CC2)C[C@H]1C	inactive
O=C(O)C(O)Cc1ccc(O)c(O)c1 (configuration not stated)	active
CN(C)C1CCN(C(=O)c2ccc(NC(=O)Nc3nc(N4CCOCC4)nc(N4CCOCC4)n3)cc2)CC1	active
O=C(NCc1ccccc1)c1csc(Nc2ccncn2)n1	active
